target: Integrin alpha-V/beta-5 (Homo sapiens, UniProt P06756+P18084); assay: Inhibition of human wild type integrin alphaVbeta5-mediated human SW480 cell adhesion to vitronectin preincubated for 15 to 30 mins followed by 60 min incubation for adhesion by crystal violet staining based cell adhesion assay
Sequence (P06756 31-889 limits assumed): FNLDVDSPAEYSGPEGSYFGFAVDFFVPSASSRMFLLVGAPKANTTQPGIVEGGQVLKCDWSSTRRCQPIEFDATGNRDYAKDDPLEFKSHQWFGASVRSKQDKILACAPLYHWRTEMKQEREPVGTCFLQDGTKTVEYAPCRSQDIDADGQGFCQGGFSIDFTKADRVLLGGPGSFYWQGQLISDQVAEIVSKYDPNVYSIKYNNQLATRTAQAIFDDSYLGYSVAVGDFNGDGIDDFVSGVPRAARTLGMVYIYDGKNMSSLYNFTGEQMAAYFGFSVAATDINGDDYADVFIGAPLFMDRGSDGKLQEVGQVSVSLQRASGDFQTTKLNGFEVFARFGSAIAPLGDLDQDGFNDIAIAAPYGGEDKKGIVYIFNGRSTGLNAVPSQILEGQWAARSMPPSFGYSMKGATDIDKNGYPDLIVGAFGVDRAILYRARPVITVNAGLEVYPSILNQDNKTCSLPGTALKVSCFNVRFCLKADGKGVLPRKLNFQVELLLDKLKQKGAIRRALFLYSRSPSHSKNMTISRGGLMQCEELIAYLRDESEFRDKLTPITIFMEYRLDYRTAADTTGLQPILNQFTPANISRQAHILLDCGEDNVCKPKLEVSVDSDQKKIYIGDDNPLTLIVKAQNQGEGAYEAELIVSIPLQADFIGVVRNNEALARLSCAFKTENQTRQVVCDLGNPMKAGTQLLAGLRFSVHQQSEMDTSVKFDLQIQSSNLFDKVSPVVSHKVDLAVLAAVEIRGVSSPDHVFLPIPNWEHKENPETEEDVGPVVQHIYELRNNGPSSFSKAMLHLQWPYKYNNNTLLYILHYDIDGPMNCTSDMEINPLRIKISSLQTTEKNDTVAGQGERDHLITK
Sequence (P06756 891-1048 limits assumed): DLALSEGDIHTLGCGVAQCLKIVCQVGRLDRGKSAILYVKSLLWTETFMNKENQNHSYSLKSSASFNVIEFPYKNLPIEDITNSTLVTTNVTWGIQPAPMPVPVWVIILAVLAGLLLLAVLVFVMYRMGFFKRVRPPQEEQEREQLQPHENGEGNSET
Sequence (P18084 24-799 limits assumed): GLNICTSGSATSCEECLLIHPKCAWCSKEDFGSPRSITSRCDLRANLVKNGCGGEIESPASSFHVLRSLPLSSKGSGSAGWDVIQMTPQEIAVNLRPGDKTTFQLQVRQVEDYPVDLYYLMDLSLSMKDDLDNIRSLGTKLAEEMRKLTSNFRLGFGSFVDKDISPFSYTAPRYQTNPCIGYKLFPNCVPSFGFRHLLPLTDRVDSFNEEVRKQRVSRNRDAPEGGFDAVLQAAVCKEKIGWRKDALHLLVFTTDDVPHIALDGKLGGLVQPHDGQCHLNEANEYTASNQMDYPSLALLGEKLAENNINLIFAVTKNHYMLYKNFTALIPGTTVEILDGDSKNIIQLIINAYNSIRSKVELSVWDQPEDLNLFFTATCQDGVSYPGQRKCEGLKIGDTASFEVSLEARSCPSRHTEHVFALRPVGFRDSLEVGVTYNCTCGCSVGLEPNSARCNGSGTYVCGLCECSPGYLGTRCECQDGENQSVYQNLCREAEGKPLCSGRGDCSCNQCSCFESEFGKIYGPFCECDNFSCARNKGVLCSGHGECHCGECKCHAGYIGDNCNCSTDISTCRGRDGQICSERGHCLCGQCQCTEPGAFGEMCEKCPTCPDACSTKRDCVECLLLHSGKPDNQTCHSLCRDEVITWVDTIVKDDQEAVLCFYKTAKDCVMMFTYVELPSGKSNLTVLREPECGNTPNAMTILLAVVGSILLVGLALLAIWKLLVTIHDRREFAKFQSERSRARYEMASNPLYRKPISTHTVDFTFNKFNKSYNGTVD
Task for the reader: assign each of the following compounds its reported pIC50.
Give bare numbers, as −log10 of the molar value.

Record excerpt, results attached:
1. N=C(N)NCCCCC(=O)Nc1ccc(C[C@H](NC(=O)[C@@H]2CCCCN2S(=O)(=O)c2ccccc2)C(=O)O)cc1	6.80
2. O=C(CCCCNC1=NCCN1)Nc1ccc(C[C@H](NC(=O)[C@@H]2CCCN2S(=O)(=O)c2ccccc2)C(=O)O)cc1	6.70

API: the following record is the query input.
Task: # get_value(readout='pIC50', item= N=C(N)NCCCC(=O)Nc1ccc(C[C@H](NC(=O)[C@@H]2CCCCN2S(=O)(=O)c2ccccc2)C(=O)O)cc1 )
Output: 5.80

Values compiled from ChEMBL document CHEMBL3862028.
